Items are presented alongside their recorded pIC50.
- Experimental target: 72 kDa type IV collagenase (Homo sapiens, UniProt P08253)
- Sequence (P08253 whole entry): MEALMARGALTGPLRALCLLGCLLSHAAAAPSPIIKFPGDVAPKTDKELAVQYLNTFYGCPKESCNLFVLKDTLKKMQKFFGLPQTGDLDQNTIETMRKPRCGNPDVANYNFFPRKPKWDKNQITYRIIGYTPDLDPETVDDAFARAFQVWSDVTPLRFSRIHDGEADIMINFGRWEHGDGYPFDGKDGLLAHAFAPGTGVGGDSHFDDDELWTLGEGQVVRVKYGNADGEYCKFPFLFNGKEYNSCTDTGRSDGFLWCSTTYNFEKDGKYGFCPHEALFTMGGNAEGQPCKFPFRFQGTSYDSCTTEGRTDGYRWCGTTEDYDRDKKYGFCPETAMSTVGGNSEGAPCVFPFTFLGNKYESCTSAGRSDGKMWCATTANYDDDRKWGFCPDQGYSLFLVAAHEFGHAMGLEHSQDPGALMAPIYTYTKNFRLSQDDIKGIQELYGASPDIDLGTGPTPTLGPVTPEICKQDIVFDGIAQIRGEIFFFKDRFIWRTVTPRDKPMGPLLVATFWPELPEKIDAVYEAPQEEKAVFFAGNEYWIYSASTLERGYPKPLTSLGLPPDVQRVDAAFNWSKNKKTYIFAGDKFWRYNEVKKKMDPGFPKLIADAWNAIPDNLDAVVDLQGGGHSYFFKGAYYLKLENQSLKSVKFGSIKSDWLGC
- Procedure details: Inhibition of human MMP2 using Mca-Pro-Leu-Gly-Leu-Dpa-Ala-Arg-NH as substrate preincubated for 60 mins followed by substrate addition by fluorescence analysis
API: returns pIC50 as number; meaning -log10 of concentration in mol/L.

[Q] // returns reported pIC50 for input O=C1C(Cc2ccccc2)N(S(=O)(=O)c2ccc(Br)cc2)C(=O)C(Cc2ccccc2)N1S(=O)(=O)c1ccc(Br)cc1 (configuration not stated)
[A] 7.41

[Q] Please give the measured pIC50 for this compound: Nc1ccc(S(=O)(=O)N2CC(=O)N(S(=O)(=O)c3ccc(N)cc3)CC2=O)cc1
[A] 7.27

[Q] Recorded pIC50 of O=C1C(c2ccccc2)N(S(=O)(=O)c2cccc(Br)c2)C(=O)C(c2ccccc2)N1S(=O)(=O)c1cccc(Br)c1 (configuration not stated) , please.
[A] 7.26

[Q] // pIC50 lookup, key: O=C1C(c2ccccc2)N(S(=O)(=O)c2ccc(O)cc2)C(=O)C(c2ccccc2)N1S(=O)(=O)c1ccc(O)cc1 (configuration not stated)
[A] 7.24

[Q] I have this compound here, O=C1C(c2ccccc2)N(S(=O)(=O)c2ccc(Cl)cc2)C(=O)C(c2ccccc2)N1S(=O)(=O)c1ccc(Cl)cc1 (configuration not stated) , and I need its recorded pIC50.
[A] 7.71

[Q] Which measured pIC50 value corresponds to Cc1ccc(S(=O)(=O)N2C(=O)C(c3ccccc3)N(S(=O)(=O)c3ccc(C)cc3)C(=O)C2c2ccccc2)cc1 (configuration not stated) ?
[A] 7.20

[Q] Item O=C1C(Cc2ccccc2)N(S(=O)(=O)c2ccc(Cl)cc2)C(=O)C(Cc2ccccc2)N1S(=O)(=O)c1ccc(Cl)cc1 (configuration not stated) has what recorded pIC50?
[A] 7.43
